- Tested on: MALME-3M melanoma
- Protocol details: NCI tumour cell line growth inhibition, 48 h
Property: TGI; scope: individual compounds

COc1ccc2c(c1)[nH]c(=O)c1c3cc(OC)c(OC)cc3cn21 : 44.1 µM
CCCC(C)c1c(Cl)nc(Cl)nc1Cl (configuration not stated) : 55.6 µM
C=CCOCn1ccc(N)nc1=O : > 100 µM
Cc1cn([C@H]2C[C@H](O)[C@@H](CO)O2)c(=O)nc1N : > 100 µM
COc1cc(-c2nc(-c3ccc(-c4nc5ccc(F)cc5[nH]4)cc3)no2)cc(OC)c1OC : 6.52 µM
CCN(CC)C1Oc2cc3c(cc2C(c2cccc(OC)c2O)C1C)OCO3 (configuration not stated) : 21.7 µM
CCCCCCCCCCCCCCCC(=O)OCC1OC(OC)C(NC(=O)N(CCCl)N=O)C(O)C1O (configuration not stated) : 59 µM
N#Cc1c(N2CCCC2)nsc1Nc1ccc(F)cc1 : > 100 µM

// returns reported TGI for input `CC(C)=CCC[C@@H](C)C1=CC(=O)C(C)=C(O)C1=O`
23.3 µM

// returns reported TGI for input `Fc1cccc(Cl)c1Cn1c(-c2c(F)cccc2Cl)nc2ccccc21`
24.7 µM

// returns reported TGI for input CC(C)CN1CC(C)C(=O)NC1=O (configuration not stated)
> 100 µM

// returns reported TGI for input `O=C1c2cccc3c(Cl)ccc(c23)C(=O)N1CCCN1CCN(CCCN2C(=O)c3cccc4c(Cl)ccc(c34)C2=O)CC1`
> 100 µM

// returns reported TGI for input `O=C1CCSC(=S)N1c1ccc(Br)c(Cl)c1`
49.8 µM

====

- Tested on: UO-31 renal
- Protocol details: NCI tumour cell line growth inhibition, 48 h
Where a SMILES comes first, the peptide text is derived from it. Side-chain parts run from the residue outwards. The star is where a group is joined. Cbz = O=C(OCc1ccccc1)*; Boc = CC(C)(C)OC(=O)*
Property: TGI; scope: individual compounds

CC(C)=CC(=O)N[C@@H]1CC2CCC3C(CC[C@@]4(C)C3CC[C@@H]4C(C)N(C)C)[C@@]2(C)C[C@@H]1O (some centres not stated) : 4.43 µM
O=C(c1ccccc1)c1c(C(F)(F)F)n([O-])c2cc(F)c(F)cc2[n+]1=O : 2.4 µM
COc1ccc(C2=NNC(c3cc4cc(Br)ccc4nc3Cl)C2)cc1 (configuration not stated) : > 25 µM
COc1cccc([C@@H]2CC(=O)c3cc4c(cc3N2)OCO4)c1 : > 100 µM
Cn1nc2ccc3nccc(NCCNCCO)c3c2n1 : 90.9 µM
CCOc1ccc(NCC2CC/C(=C\c3ccc(Cl)cc3)C2=O)cc1 (configuration not stated) : > 58.5 µM

# context switch: different compound, same TGI
// returns reported TGI for input CC(C)(C)OC(=O)NC(CCCCNC(=O)CNC(=O)OCc1ccccc1)C(=O)NC(CCCCNC(=O)CNC(=O)OCc1ccccc1)C(=O)NC(CCCCNC(=O)CNC(=O)OCc1ccccc1)C(=O)NC(CCCCNC(=O)CNC(=O)OCc1ccccc1)C(=O)O (configuration not stated) (Boc-K([Gly-Cbz])K([Gly-Cbz])K([Gly-Cbz])K([Gly-Cbz])-OH; configuration not given here)
> 100 µM

====

- Tested on: SNB-19 CNS
- Protocol details: NCI tumour cell line growth inhibition, 48 h
Property: TGI; scope: individual compounds

// returns reported TGI for input `Oc1ccc2ccccc2c1N=Nc1ccc(Cl)cc1`
> 100 µM

// returns reported TGI for input COc1ccc(C2C(C#N)=C(S)N(C3OC(CO)C(O)C(O)C3O)C(C)=C2C(C)=O)cc1 (configuration not stated)
> 100 µM

// returns reported TGI for input `NC1=Nc2ccccc2Sc2nc3ccccc3n21`
> 100 µM

// returns reported TGI for input CC(=O)OCC1OC(SC2=NC(=O)/C(=C/c3ccccc3)S2)C(OC(C)=O)C(OC(C)=O)C1OC(C)=O (configuration not stated)
> 100 µM

// returns reported TGI for input CCOC(=O)c1ccccc1SC(C[N+](=O)[O-])c1ccccc1 (configuration not stated)
23.9 µM

Attribution: PubChem BioAssay (NCI)
